Biological target: Prolyl endopeptidase (PREP) (Homo sapiens, UniProt P48147)
Sequence (P48147 whole entry): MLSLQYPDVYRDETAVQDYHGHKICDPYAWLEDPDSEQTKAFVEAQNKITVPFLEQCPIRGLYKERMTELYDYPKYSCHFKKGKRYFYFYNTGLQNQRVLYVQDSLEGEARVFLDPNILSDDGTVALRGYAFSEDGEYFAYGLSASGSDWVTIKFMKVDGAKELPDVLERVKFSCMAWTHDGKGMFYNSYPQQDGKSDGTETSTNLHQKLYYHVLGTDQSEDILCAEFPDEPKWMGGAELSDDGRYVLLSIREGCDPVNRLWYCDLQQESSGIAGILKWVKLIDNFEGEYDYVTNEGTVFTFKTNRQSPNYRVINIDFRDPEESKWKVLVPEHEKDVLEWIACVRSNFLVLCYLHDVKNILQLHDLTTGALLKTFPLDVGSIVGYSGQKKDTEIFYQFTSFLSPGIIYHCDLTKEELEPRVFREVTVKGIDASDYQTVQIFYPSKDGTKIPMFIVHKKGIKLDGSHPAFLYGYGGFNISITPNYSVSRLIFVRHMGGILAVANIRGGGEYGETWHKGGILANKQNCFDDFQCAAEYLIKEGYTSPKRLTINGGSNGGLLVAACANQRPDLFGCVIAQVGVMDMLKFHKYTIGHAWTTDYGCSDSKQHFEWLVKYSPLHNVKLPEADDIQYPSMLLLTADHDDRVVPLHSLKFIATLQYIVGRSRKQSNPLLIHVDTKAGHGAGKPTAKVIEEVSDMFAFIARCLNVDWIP
Test: Chromogenic enzyme assay (Z-Gly-Pro-pNA, […] nm) with recombinant human PREP
Format: biochemical
Observable: pIC50
Worth noting: pIC50 values are minus log10 of concentrations stated in mol/L.

Lookup: Entry under review: `COc1cc(C(=O)O)cc(OC)c1O` . Reported pIC50?
Found: 3.81
